# Lookup of reported log10 EC50 keyed by entry
- test system: Integrin alpha-4/beta-7 (Homo sapiens, UniProt P13612+P26010)
- Sequence (P13612 whole entry): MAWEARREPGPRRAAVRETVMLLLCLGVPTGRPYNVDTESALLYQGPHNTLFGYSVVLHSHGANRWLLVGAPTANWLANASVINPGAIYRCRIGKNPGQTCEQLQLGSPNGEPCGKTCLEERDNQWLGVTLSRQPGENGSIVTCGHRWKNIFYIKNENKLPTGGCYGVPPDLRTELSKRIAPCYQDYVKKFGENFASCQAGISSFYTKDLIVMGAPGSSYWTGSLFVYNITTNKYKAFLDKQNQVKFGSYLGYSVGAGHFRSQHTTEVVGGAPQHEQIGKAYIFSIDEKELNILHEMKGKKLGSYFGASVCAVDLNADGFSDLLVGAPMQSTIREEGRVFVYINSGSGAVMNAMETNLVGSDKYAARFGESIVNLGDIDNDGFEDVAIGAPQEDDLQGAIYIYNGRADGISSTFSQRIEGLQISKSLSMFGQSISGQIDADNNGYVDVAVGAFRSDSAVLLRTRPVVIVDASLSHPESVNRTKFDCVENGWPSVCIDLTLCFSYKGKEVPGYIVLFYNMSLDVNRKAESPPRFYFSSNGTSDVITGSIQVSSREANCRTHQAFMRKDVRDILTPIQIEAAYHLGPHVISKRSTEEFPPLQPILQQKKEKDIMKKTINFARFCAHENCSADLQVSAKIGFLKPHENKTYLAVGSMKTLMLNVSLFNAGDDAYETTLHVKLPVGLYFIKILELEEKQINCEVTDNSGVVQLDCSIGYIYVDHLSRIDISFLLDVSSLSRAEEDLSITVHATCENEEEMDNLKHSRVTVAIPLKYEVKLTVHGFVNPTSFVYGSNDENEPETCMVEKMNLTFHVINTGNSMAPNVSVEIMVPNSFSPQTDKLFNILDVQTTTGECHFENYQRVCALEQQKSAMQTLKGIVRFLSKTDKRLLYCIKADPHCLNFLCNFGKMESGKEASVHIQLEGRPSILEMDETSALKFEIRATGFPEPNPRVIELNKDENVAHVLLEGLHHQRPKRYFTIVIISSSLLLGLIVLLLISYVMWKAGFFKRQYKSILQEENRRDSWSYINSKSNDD
- Sequence (P26010 whole entry): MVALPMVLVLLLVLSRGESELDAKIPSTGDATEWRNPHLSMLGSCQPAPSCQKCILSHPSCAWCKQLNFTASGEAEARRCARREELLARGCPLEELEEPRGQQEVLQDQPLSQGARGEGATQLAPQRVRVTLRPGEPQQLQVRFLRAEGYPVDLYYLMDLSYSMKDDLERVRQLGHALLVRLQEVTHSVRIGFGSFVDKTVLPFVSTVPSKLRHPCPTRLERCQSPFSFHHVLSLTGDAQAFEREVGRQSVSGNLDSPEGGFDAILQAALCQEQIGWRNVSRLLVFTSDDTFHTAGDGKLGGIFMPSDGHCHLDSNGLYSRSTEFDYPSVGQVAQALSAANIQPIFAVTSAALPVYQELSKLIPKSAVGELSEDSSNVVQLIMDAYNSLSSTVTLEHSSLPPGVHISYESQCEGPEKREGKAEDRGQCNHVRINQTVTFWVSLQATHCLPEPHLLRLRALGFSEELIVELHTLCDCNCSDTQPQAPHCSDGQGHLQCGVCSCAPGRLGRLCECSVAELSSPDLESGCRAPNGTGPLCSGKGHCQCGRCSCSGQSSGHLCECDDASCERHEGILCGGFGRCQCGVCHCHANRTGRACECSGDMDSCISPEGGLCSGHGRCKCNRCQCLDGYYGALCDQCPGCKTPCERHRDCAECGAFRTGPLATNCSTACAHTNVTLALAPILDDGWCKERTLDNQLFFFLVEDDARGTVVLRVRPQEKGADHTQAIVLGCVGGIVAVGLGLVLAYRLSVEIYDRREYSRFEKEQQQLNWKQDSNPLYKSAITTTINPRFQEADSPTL
- measurement notes: alpha-4 beta-7 Integrin Cell Capture Assay
Hey, these are logged values: log10 of EC50, nM being the unit before logging.

Please review the entries below; each comes with its answer.
compound: CCOCc1cc(OC)c(-c2ccc(C[C@H](NC(=O)c3c(F)cc(NS(=O)(=O)c4ccc(-c5ccnc(F)c5)cc4)cc3F)C(=O)O)c3cccnc23)c(OC)c1 [US11116760, Example 50]
observed value: -0.40
--
compound: Cc1c(C)c(C)n(C)c(=O)c1-c1ccc(C[C@H](NC(=O)c2c(F)cc(N3CCOC[C@H]3C(F)(F)F)cc2F)C(=O)O)c2cccnc12 [US11116760, Example 251]
observed value: 0.49
--
compound: CC[C@@H](Nc1cc(F)c(C(=O)N[C@@H](Cc2ccc(-c3c(C(F)(F)F)c4cc(N(C)C)ccc4n(C)c3=O)c3ncccc23)C(=O)O)c(F)c1)C(F)(F)F [US11116760, Example 125]
observed value: 0.00
--
compound: CC[C@@H](Nc1cc(F)c(C(=O)N[C@@H](Cc2ccc(-c3nccc(C)n3)c3ncccc23)C(=O)O)c(F)c1)C(F)(F)F [US11116760, Example 294]
observed value: 0.87
--
compound: O=C(N[C@@H](Cc1ccc(-c2nccc(C(F)(F)F)c2Cl)c2ncccc12)C(=O)O)c1c(Cl)cccc1Cl [US11116760, Example 314]
observed value: 1.13

# assay system Integrin alpha-4/beta-7 (Homo sapiens, UniProt P13612+P26010): give log10 EC50 of N#Cc1ccc(-c2ccc(C[C@H](NC(=O)c3c(F)cc(N4CCOC(C(F)(F)F)C4)cc3F)C(=O)O)c3cccnc23)c(Cl)c1 (stereo partly specified) [US11116760, Example 245]
1.53

* * *

- test system: Integrin alpha-4/beta-7 (Homo sapiens, UniProt P13612+P26010)
- measurement notes: alpha-4 beta-7 Integrin Cell Capture Assay
# Lookup of reported EC50 keyed by entry
Value expressed in nM; do not type the unit.

chemical string: CC1(C)CN(c2cc(F)c(C(=O)N[C@@H](Cc3ccc(-c4ccc(C#N)cc4Cl)c4ncccc34)C(=O)O)c(F)c2)CCO1
endpoint label: EC50
units label: nM
observed value: 28.6

chemical string: COc1c(-c2ccc(C[C@H](NC(=O)c3c(F)cccc3F)C(=O)O)c3cccnc23)c(=O)n(C)c2ccccc12
endpoint label: EC50
units label: nM
observed value: 1.6

Now turn to the next compound.
# assay system Integrin alpha-4/beta-7 (Homo sapiens, UniProt P13612+P26010): give EC50 of N#Cc1ccc(-c2ccc(C[C@H](NC(=O)c3c(F)cc(N[C@H]4CCC4(F)F)cc3F)C(=O)O)c3cccnc23)c(Cl)c1
81.5

* * *

- test system: Integrin alpha-4/beta-7 (Homo sapiens, UniProt P13612+P26010)
- Sequence (P13612 whole entry): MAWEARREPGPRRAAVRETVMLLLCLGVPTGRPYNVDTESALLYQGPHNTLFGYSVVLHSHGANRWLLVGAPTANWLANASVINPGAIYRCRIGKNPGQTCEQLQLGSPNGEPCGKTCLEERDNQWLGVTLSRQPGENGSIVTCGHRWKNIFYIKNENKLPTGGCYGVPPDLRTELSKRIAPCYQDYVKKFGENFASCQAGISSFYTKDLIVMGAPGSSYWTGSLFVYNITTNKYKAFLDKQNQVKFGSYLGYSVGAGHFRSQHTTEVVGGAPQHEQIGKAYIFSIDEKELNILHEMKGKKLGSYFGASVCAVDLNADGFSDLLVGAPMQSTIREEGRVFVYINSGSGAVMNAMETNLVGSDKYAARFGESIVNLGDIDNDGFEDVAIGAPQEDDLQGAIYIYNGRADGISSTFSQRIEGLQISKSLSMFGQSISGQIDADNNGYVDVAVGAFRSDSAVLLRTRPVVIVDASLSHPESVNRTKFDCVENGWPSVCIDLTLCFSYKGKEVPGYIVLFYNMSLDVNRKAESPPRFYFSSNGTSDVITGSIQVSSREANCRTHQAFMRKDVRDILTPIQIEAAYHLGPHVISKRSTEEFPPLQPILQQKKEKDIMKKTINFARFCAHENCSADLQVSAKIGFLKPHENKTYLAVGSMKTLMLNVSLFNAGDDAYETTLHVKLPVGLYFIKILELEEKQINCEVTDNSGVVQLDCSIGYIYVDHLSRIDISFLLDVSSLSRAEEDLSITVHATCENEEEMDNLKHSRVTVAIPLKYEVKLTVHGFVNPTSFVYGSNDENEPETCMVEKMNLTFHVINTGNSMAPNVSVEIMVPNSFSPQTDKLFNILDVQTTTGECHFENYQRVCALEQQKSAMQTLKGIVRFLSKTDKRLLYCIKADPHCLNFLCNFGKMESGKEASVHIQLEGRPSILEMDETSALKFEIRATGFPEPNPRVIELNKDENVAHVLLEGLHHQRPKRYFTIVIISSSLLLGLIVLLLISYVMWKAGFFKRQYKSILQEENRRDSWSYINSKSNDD
- Sequence (P26010 whole entry): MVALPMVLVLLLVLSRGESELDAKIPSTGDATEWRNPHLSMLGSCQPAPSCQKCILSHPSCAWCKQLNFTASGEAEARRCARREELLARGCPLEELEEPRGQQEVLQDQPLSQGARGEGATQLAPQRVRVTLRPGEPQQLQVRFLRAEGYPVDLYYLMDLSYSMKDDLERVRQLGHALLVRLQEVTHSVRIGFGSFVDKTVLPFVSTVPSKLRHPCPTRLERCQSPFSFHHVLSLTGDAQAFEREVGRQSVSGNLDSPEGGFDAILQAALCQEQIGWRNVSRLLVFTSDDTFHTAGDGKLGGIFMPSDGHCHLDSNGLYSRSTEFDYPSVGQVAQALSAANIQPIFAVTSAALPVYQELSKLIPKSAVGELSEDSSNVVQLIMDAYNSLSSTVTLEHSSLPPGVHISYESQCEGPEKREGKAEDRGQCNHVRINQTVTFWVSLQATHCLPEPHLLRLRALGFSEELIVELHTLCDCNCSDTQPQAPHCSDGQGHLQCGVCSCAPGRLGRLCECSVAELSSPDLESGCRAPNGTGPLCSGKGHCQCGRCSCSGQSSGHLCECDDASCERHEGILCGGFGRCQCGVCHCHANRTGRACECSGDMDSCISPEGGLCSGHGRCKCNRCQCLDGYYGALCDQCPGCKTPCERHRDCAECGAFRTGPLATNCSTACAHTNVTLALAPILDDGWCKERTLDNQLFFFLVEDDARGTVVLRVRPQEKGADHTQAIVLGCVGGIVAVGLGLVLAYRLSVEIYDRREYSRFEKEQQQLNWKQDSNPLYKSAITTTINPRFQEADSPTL
- measurement notes: alpha-4 beta-7 Integrin Cell Capture Assay
endpoint label: log10(EC50) (log10 of the value in nM)
Hey, these are logged values: log10 of EC50, nM being the unit before logging.

# return recorded log10(EC50) for entry N#Cc1ccc(-c2ccc(C[C@H](NC(=O)c3c(Cl)ccc(F)c3F)C(=O)O)c3cccnc23)c(Cl)c1 [US11116760, Example 17]
1.56

# return recorded log10(EC50) for entry Cc1nc(-c2ccc(C[C@H](NC(=O)c3c(F)cc(N4CCOC[C@@H]4C(F)(F)F)cc3Cl)C(=O)O)c3cccnc23)c(=O)n(C)c1C [US11116760, Example 454]
-0.85

# return recorded log10(EC50) for entry O=C(N[C@@H](Cc1ccc(-c2cc(F)c(F)cc2OCC2CC2)c2ncccc12)C(=O)O)c1c(F)cccc1F [US11116760, Example 10]
1.33

# return recorded log10(EC50) for entry Cc1cc(C(F)(F)F)c(-c2ccc(C[C@H](NC(=O)c3c(F)cc(N[C@H](C4CC4)C(F)(F)F)cc3F)C(=O)O)c3cccnc23)c(=O)n1C [US11116760, Example 155]
-0.52

# return recorded log10(EC50) for entry C[C@@H]1CN(c2cc(F)c(C(=O)N[C@@H](Cc3ccc(-c4ccc(C#N)cc4Cl)c4ncccc34)C(=O)O)c(F)c2)CCO1 [US11116760, Example 328]
1.29

# return recorded log10(EC50) for entry N#Cc1ccc(-c2ccc(C[C@H](NC(=O)c3c(F)cc(N4CCO[C@@H](C(F)(F)F)C4)cc3F)C(=O)O)c3cccnc23)c(Cl)c1 [US11116760, Example 265]
1.84
